assay: Solubility in water or DMSO; conditions: dmso, organic solvent or mixture
Numbered stars: 1 amine (or outer) side, 2 acyl side, 3 side chain; on linkers, the order of the positions; unused ones are H or OH. Bridge positions count the residues as written; N and C are the ends. Square brackets hold non-standard residues; d marks the D form. Peptide text beside a SMILES is read from it. * marks the point of attachment. Tridecanoyl(12-Me) = CC(C)CCCCCCCCCCC(=O)*; X1 = NC(=O)CC(O)C(N[*:1])C(=O)[*:2]; NMeF = CN[CH](Cc1ccccc1)C(=O)O; NMeN = CN[CH](CC(N)=O)C(=O)O; X2 = CCC(C)CCCCCCCCCCC(=O)*
Each entry below lists one item and its recorded solubility value.
endpoint_label: solubility

• CCC(C)CCCCCCCCCCC(=O)NC1C(=O)NC(CC(=O)O)C(=O)NC(C(O)CC(N)=O)C(=O)NC(CO)C(=O)N(C)C(CC(N)=O)C(=O)N(C)C(Cc2ccccc2)C(=O)NC(CCC(N)=O)C(=O)NC(CCC(=O)O)C(=O)OC1C (stereo not drawn) [Formula II (b) Lipopeptide 1218] (X2-TD[X1]S[NMeN][NMeF]QE; ester 1-C; configuration not given here) = > 10000 µg/mL
• CC(C)CCCCCCCCCCC(=O)NC1C(=O)NC(CC(=O)O)C(=O)NC(C(O)CC(N)=O)C(=O)NC(CO)C(=O)N(C)C(CC(N)=O)C(=O)N(C)C(Cc2ccccc2)C(=O)NC(CCC(N)=O)C(=O)NC(CCC(=O)O)C(=O)OC1C (stereo not drawn) [Formula II (a) Lipopeptide 1204] ({Tridecanoyl(12-Me)}-TD[X1]S[NMeN][NMeF]QE; ester 1-C; configuration not given here) = > 10000 µg/mL
• CC(=O)NC1C(OCC(OC2OC(CO)C(O)C(O)C2O)C2OC(OC3C(O)C(CO)OC(OC4(CO)OC(C(O)CO)C(O)C4OC4OC(CO)C(O)C(O)C4O)C3O)C(O)C(O)C2OC2OC(C(O)CO)C(O)C(O)C2OC2OCC(OC(N)=O)C(O)C2O)OC(CO)C(O)C1O (stereo not drawn) = > 9770 µg/mL
